Overview of recorded TGI for various compounds
System: RXF 393 renal
Assay: NCI tumour cell line growth inhibition, 48 h

COMPOUND	TGI
O=C1Nc2c(C(F)(F)F)cccc2[C@@]1(c1ccc(O)cc1)c1ccc(OC(F)(F)F)cc1	< 0.0232 µM
CN(C)CCNC(=O)C(C)(C)Oc1ccc(C(=O)c2ccc(Cl)cc2)cc1Cl	21.7 µM
NC(N)=N/N=C/c1c(-c2cc(Cl)sc2Cl)nc2sccn12	13.7 µM
NCCN1C(=O)CN=C(c2ccc(Cl)cc2)c2cc(Cl)ccc21	24.5 µM
Cc1nnc2sc(NN)nn12	> 100 µM
C=CCSC1=N/C(=C\c2cccs2)C(=O)N1CC=C	64.2 µM
CCCCCCCCCCCCCCCCOCC(Cl)COP(=O)(O)OP(=O)(O)OCC1OC(n2cc(C)c(=O)[nH]c2=O)CC1O (stereo not given)	> 100 µM
N#Cc1ccccc1NC(=O)C(=O)c1c(O)c2ccccc2oc1=O	> 100 µM
Cc1ncc2c(=O)c3c(oc2n1)c1ccccc1n3Cc1ccccc1	> 100 µM
COc1ccc2cc(-c3cc4c(oc3=O)-c3ccccc3OC4O)c(=O)oc2c1 (stereo not given)	36.4 µM
COc1cc(-c2nc3ccccc3s2)ccc1NC(=O)COc1ccc(Cl)cc1	11.3 µM
CC1CC[C@@]2(OC1)OC1CC3C4CCC5C[C@@H](OC6OC(CO)C(OC7OC(CO)C(O)C(OC8OC(CO)C(O)C(OC9OC(CO)C(O)C(O)C9O)C8O)C7OC7OC(CO)C(O)C(O)C7O)C(O)C6O)[C@H](O)C[C@]5(C)C4CC[C@]3(C)C1[C@@H]2C (stereo not given in full)	> 80.5 µM
NS(=O)(=O)c1ccc(NC2=CC(=O)C(=O)c3ccccc32)cc1	> 100 µM
CCN(CC)CCNC(=O)c1cc2cc(NC(=O)c3cc4cc(NC(=O)c5cc6cc(N)ccc6[nH]5)ccc4[nH]3)ccc2[nH]1	> 100 µM
CC(NC(=O)C(N)CC(=O)O)NC(=O)C1CCC1 (stereo not given)	> 100 µM
CC1CC(=O)Nc2ccccc2N1C(=O)CN1CCC(CCCCN(C)C)CC1 (stereo not given)	> 100 µM
CC(NC(=O)c1ccccc1)NC(=O)C(C)C(=O)Nc1ccccc1 (stereo not given)	> 100 µM
Cc1ccc2ncnc(N(CC(C)C)CC(C)C)c2c1	27.7 µM
CCOC(=O)CSC(=O)NCCCl	> 100 µM
CCN1C(=O)C(C)S/C1=N\NC(=O)CSc1nc2ccccc2c(=O)n1CC (stereo not given)	> 100 µM

* * *

Tested on: SK-MEL-2 melanoma
Experiment: NCI tumour cell line growth inhibition, 48 h; in the data active = GI50 below about 0.43 µM; inactive = the rest
Labels: active, inactive

> print(dat)
                                    compound  label.value
 1  COc1cc2nc(SCC(=O)Nc3cc(OC)c(OC)c(OC)c3)n(Cc3ccccc3)c(=O)c2cc1OC     inactive
 2  COc1ccc2c(c1)[nH]c(=O)c1c3cc(OC)ccc3cn21       active
 3               Oc1ccc(O)c(-c2cn3ccsc3n2)c1     inactive
 4  COC(=O)[C@]12CC[C@@H](C)[C@H](C)[C@@H]1C1=CC[C@@H]3[C@@]4(C)C(C=O)=C[C@@](C)(COC(C)=O)C4=CC[C@@]3(C)[C@]1(C)CC2     inactive
 5  O=[N+]([O-])c1ccc(Sc2ncnc3nc[nH]c23)c2nonc12     inactive
 6  CS(=O)(=O)Nc1ccc(-c2cc(-c3ccccc3)cc(C(N)=O)c2N)cc1     inactive
 7    CN(C)c1ccc(N=C2C=CC(=[N+](C)C)C=C2)cc1     inactive
 8  CN(Cc1cc(Br)cc(Br)c1O)Cc1cc(Br)cc(Br)c1O     inactive
 9  CCCCCCCCN(CCCCCCCC)CCCCCCNc1cc(OC)cc2cccnc12     inactive
10  O=[N+]([O-])c1ccccc1N/N=C\c1c[nH]c2ccccc12     inactive
11  COc1ccc(C(SCC(N)C(=O)O)(c2ccccc2)c2ccccc2)cc1 (stereo unspecified)     inactive
